Molecular target: hCA IX (Homo sapiens)
Assay: Stopped flow CO2 hydrase assay
Conditions: Ki hCA II / Ki hCA IX
Label key: true means Selectivity ratio II/IX under 3; false means Selectivity ratio II/IX of 3 or more.

# compound, assignedCategory
rows = [
    ("NS(=O)(=O)c1ccc(NC(=O)c2ccc(NC=C3C(=O)Nc4ccccc43)cc2)cc1", "false"),
]

Dear colleague, could you confirm whether Selectivity ratio II/IX of NS(=O)(=O)c1ccc(NCc2ccc(NC=C3C(=O)Nc4ccccc43)cc2)cc1 [Compound 11a] falls below 3? Thanks.
false

NS(=O)(=O)OC=C1C(=O)Nc2ccccc21 [Compound 7, (2-Oxoindolin-3-ylidene)methyl sulfamate] ?
false

NS(=O)(=O)c1ccc(NC=CC(=O)c2ccc(NC=C3C(=O)Nc4ccccc43)cc2)cc1 [Compound 13a] ?
false

NS(=O)(=O)N/C=C1/C(=O)Nc2ccccc21 [Compound 5, 3-(sulfamidmethylene)indoline-2-one] ?
false

NS(=O)(=O)c1nnc(NC=C2C(=O)Nc3ccccc32)s1 ?
true

NS(=O)(=O)c1ccc(NC(=O)Nc2ccc(NC=C3C(=O)Nc4ccccc43)cc2)cc1 [Compound 15a] ?
true

O=C1Nc2ccccc2C1=CNc1ccc(CNc2ccc(S(=O)(=O)Nc3ncccn3)cc2)cc1 [Compound 11b] ?
true

Where these numbers come from: paper PMC10353187
